Every entry's value here was drawn from paper PMC8175350.

test: Pharmacokinetic studies in Syrian hamsters, PO; format: in vivo; conditions: male, Syrian, hamster, plasma; 500 mg/kg PO, 10%DMSO/90% Corn Oil
Where a name gives a salt, the structure may show the parent alone.
REPORTED ENDPOINT: Cmax (µg/mL)
Write down the numeric answer in µg/mL and omit the unit.

Prompt: Look up and report measured Cmax for this entry: Cc1c(O)cccc1C(=O)N[C@@H](CSc1ccccc1)[C@H](O)CN1C[C@H]2CCCC[C@H]2C[C@H]1C(=O)NC(C)(C)C [Nelfinavir mesylate]
Response: 2.25

* * *

test system: SARS-CoV-2; experiment: microbe, parasite or virus in culture; assay type: cell-based; settings: Severe acute respiratory syndrome coronavirus 2, Calu-3, geometric mean of replicates; read-out: Calu-3 CoV-2 EC50 GeoMean
The compounds listed here are annotated with their pEC50.
Scale explanation: pEC50 corresponds to minus log10 of a concentration expressed in moles per litre.

Check out these entries, answers already filled in.
INSERT INTO results (compound, experimental_value) VALUES
  ('NC(N)=Nc1ncc(Cl)c2ccc(-c3cccc(C(=O)O)c3)cc12 [UK-356202]', 5.72),
  ('N=C(N)Nc1ccc(C(=O)Oc2ccc(S(N)(=O)=O)cc2)cc1 [Ono-3307]', 5.80),
  ('CC(=O)N1C[C@H](O)C[C@H]1C(=O)N[C@@H](CCCNC(=N)N)C(=O)c1nc2ccccc2s1 [RWJ-56423]', 5.91),
  ('CC/C(=C(/c1ccc(/C=C/C(=O)O)cc1)c1ccc2[nH]ncc2c1)c1ccc(F)cc1Cl [ARN-810]', 5.96);

Okay, now this compound:
Prompt: Give measured pEC50 for O[C@@H]1CO[C@H]2[C@@H]1OC[C@H]2Oc1nc2nc(-c3ccc(-c4ccccc4)cc3)c(Cl)cc2[nH]1 [MK-8722] (SARS-CoV-2).
Response: 5.56

* * *

tested on: Calu-3 cells
Residues, ends and D or L forms follow the SMILES beside them. *: point of attachment. Cbz = O=C(OCc1ccccc1)*; CHN2 = [N-]=[N+]=C*
REPORTED ENDPOINT: uninfected Calu-3 CC50

Would you please look over these solved cases?
INSERT INTO assay_data (compound, experimental_value) VALUES
  ('CC(C)CC(NC(=O)OCc1ccccc1)C(=O)NC(C(=O)NCC(=O)C=[N+]=[N-])C(C)C (stereo not drawn) [Z LVG CHN2] (Cbz-Leu-Val-Gly-CHN2; configuration not given here)', '> 29.867 ×÷ 1.001 (n=3) μM'),
  ('O=C(CCCN1CCN(c2ccc(F)cc2)CC1)NC1c2ccccc2CSc2ccccc21 (stereo not shown) [Monatepil]', '> 29.9 ×÷ 1.002 (n=4) μM'),
  ('Nc1ncnc2c1nc(Cl)n2[C@@H]1O[C@H](CO)[C@@H](O)[C@H]1O', '> 27.747 ×÷ 1.135 (n=3) μM'),
  ('COC(CNCC(C)C)COc1c(C)csc1C(=O)CCc1ccccc1 (stereo not shown)', '> 29.079 ×÷ 1.048 (n=3) μM');

Prompt: Provide the reported uninfected Calu-3 CC50 (system: Calu-3 cells) for "CN1CCN(c2ccc(C(=O)NCc3cnc(C#N)nc3NCC(C)(C)C)cc2)CC1"
Response: > 29.867 ×÷ 1.001 (n=3) μM

Prompt: Provide uninfected Calu-3 CC50, tested on Calu-3 cells, for "N#Cc1ccc2c(c1)[C@H]1CN(CCCCNC(=O)c3ccc(-c4ccccc4)cc3)C[C@@H]1CO2" .
Response: > 22.75 ×÷ 1.601 (n=3) μM

Prompt: State uninfected Calu-3 CC50 on Calu-3 cells. Entry: "CCOC(=O)[C@@H]1O[C@H]1C(=O)N[C@@H](CC(C)C)C(=O)N1CCN(Cc2ccc(OC)c(OC)c2OC)CC1"
Response: > 29.867 ×÷ 1.001 (n=3) μM
